Data provenance: ChEMBL document CHEMBL2169783

# assay protocol: Half life in fasted Crlj:CD1(ICR) mouse at 2.6 mg/kg, po
# Format: ADME, organism-based
# Parameters: dose 2.6 mg/kg, route oral
# protocol conditions: in vivo
attribute measured: half-life (h)

- compound: "CC(C)c1ccc(Cc2ccc3c(c2)[C@]2(OC3)O[C@H](CO)[C@@H](O)[C@H](O)[C@H]2O)cc1"
  output unit: "h"
  number: 2.9

====

# assay protocol: Cmax in fasted Crlj:CD1(ICR) mouse at 2.8 mg/kg, po
# Assay type: ADME, organism-based
# Design: dose 2.8 mg/kg, route oral
# protocol conditions: in vivo
attribute measured: Cmax (ng/mL)

- molecule: "CCc1ccc(Cc2ccc3c(c2)[C@]2(OC3)O[C@H](CO)[C@@H](O)[C@H](O)[C@H]2O)cc1 [TOFOGLIFLOZIN ANHYDROUS]"
  attribute measured: "Cmax"
  number: 1350
